Ref: ChEMBL document CHEMBL2390946

# method-description: Volume of distribution at steady state in rat at 1 mg/kg, iv and 5 mg/kg, po
# Format: ADME, organism-based
# cond: in vivo, read-out: Vdss
quantity-measured: Vd

structure_smiles_string=COc1cc(C(=O)NC2CCN(C)CC2)ccc1Nc1ncc2c(n1)N(C1CCCC1)CC(F)(F)C(=O)N2C assay_value="19.6 L/kg"
structure_smiles_string=COc1cc(C(=O)NC2CCN(C)CC2)c(F)cc1Nc1ncc2c(n1)N(C1CCCC1)CC(F)(F)C(=O)N2C assay_value="13.7 L/kg"

###

# method-description: Oral bioavailability in rat at 5 mg/kg
# Type: ADME, organism-based
# cond: in vivo
Recorded bioavailability, one value per entry.
quantity-measured: bioavailability (%)

structure_smiles_string=COc1cc(C(=O)NC2CCN(C)CC2)c(F)cc1Nc1ncc2c(n1)N(C1CCCC1)CC(F)(F)C(=O)N2C assay_value=54
structure_smiles_string=COc1cc(C(=O)NC2CCN(C)CC2)ccc1Nc1ncc2c(n1)N(C1CCCC1)CC(F)(F)C(=O)N2C assay_value=11

###

# method-description: Half life in rat at 1 mg/kg, iv and 5 mg/kg, po
# Type: ADME, organism-based
# cond: in vivo
quantity-measured: half-life (h)

structure_smiles_string=COc1cc(C(=O)NC2CCN(C)CC2)ccc1Nc1ncc2c(n1)N(C1CCCC1)CC(F)(F)C(=O)N2C quantity_measured=half-life assay_value=3.3
structure_smiles_string=COc1cc(C(=O)NC2CCN(C)CC2)c(F)cc1Nc1ncc2c(n1)N(C1CCCC1)CC(F)(F)C(=O)N2C quantity_measured=half-life assay_value=5.4
